src = paper PMC5616206

# protocol: Toxicokinetics of S9229 in the 28-day rat study
# Format: in vivo, Sprague-Dawley rats
# cond: female, Sprague-Dawley (Crl:CD(SD)), rat, plasma, po, 100 mg/kg, Tmax, Day 28, 100 mg/kg bw, F
metric: Tmax (h)
Unit h implied. Number only.

Tell me the measured Tmax of COC[C@@H](CC(C)C)NC(=O)c1ccc(C)c(C)c1 [S9229] , please.
1

###

# protocol: Pharmacokinetics of S807 in rats, single iv or oral dose
# Assay type: in vivo, Sprague-Dawley rats
# cond: male, Sprague-Dawley, rat, plasma, po, 20 mg/kg
metric: half-life (h)
Unit h implied. Number only.

Tell me the measured half-life of "CCCC(CCC)NC(=O)c1ccc2c(c1)OCO2" , please.
1.14

###

# protocol: Toxicokinetics of S9229 in the 28-day rat study
# Format: in vivo, Sprague-Dawley rats
# cond: male, Sprague-Dawley (Crl:CD(SD)), rat, plasma, po, 100 mg/kg, t1/2, Day 1, 100 mg/kg bw, M
metric: half-life (h)
Unit h implied. Number only.

Tell me the measured half-life of COC[C@@H](CC(C)C)NC(=O)c1ccc(C)c(C)c1 [S9229] , please.
1.04

###

# protocol: Pharmacokinetics of S807 in rats, single iv or oral dose
# Assay type: in vivo, Sprague-Dawley rats
# cond: male, Sprague-Dawley, rat, plasma, iv, 1 mg/kg
metric: Cmax (ng/mL)
Unit ng/mL implied. Number only.

Tell me the measured Cmax of "CCCC(CCC)NC(=O)c1ccc2c(c1)OCO2" , please.
1110

###

# protocol: Pharmacokinetics of S807 in rats, single iv or oral dose
# Format: in vivo, Sprague-Dawley rats
# cond: male, Sprague-Dawley, rat, plasma, po, 200 mg/kg
metric: Cmax (ng/mL)
Unit ng/mL implied. Number only.

Tell me the measured Cmax of "CCCC(CCC)NC(=O)c1ccc2c(c1)OCO2" , please.
10500

###

# protocol: Toxicokinetics of S9229 in the 28-day rat study
# Type: in vivo, Sprague-Dawley rats
# cond: male, Sprague-Dawley (Crl:CD(SD)), rat, plasma, po, 30 mg/kg, Tmax, Day 1, 30 mg/kg bw, M
metric: Tmax (min)
Unit min implied. Number only.

Tell me the measured Tmax of "COC[C@@H](CC(C)C)NC(=O)c1ccc(C)c(C)c1" , please.
30

###

# protocol: Toxicokinetics of S9229 in the 28-day rat study
# Format: in vivo, Sprague-Dawley rats
# cond: female, Sprague-Dawley [Crl:CD(SD)], rat, plasma, po, 30 mg/kg, AUC0-24hr, Day 28, 30 mg/kg bw, F
metric: AUC(0-t) (ng·h/mL)
Unit ng·h/mL implied. Number only.

Tell me the measured AUC(0-t) of "COC[C@@H](CC(C)C)NC(=O)c1ccc(C)c(C)c1" , please.
14.5

###

# protocol: Pharmacokinetics of S807 in rats, single iv or oral dose
# Type: in vivo, Sprague-Dawley rats
# cond: female, Sprague-Dawley, rat, plasma, po, 50 mg/kg
metric: bioavailability (%)
Unit % implied. Number only.

Tell me the measured bioavailability of CCCC(CCC)NC(=O)c1ccc2c(c1)OCO2 [S807] , please.
8.25

###

# protocol: Pharmacokinetics of S807 in rats, single iv or oral dose
# Format: in vivo, Sprague-Dawley rats
# cond: female, Sprague-Dawley, rat, plasma, po, 50 mg/kg
metric: Tmax
Units required after the number.

Tell me the measured Tmax of "CCCC(CCC)NC(=O)c1ccc2c(c1)OCO2" , please.
1 h
